FYI, the data here is from the kinase profiling compilation of Christmann-Franck et al. (2016).

molecular target: MINK1 (human); assay: KINOMEscan competition binding; conditions: compound 1.0 µM
So I've got a bunch of molecules here, and I need their kinase still bound, per cent of control values.
Answers are plain numbers, in %.

Example cases with answers are listed next.
>  <SMILES REPR>
CN(C)C/C=C/C(=O)Nc1cccc(C(=O)Nc2ccc(Nc3nccc(-c4cccnc4)n3)cc2)c1

>  <kinase still bound, per cent of control / %>
37

$$$$
>  <SMILES REPR>
Cc1cc(NC(=O)c2cccc(NC(=O)/C=C/CN(C)C)c2)ccc1Nc1nccc(-c2cccnc2)n1

>  <kinase still bound, per cent of control / %>
71

$$$$
>  <SMILES REPR>
CN(C)C/C=C/C(=O)Nc1cccc(C(=O)Nc2ccc(Nc3nccc(-c4c(-c5ccccc5)nn5ccccc45)n3)cc2)c1

>  <kinase still bound, per cent of control / %>
46

$$$$

# input for lookup
Query :: Please indicate kinase still bound, per cent of control recorded for "CN(C)C/C=C/C(=O)Nc1cccc(C(=O)Nc2ccc(Nc3nccc(/C(C#N)=C4\Nc5ccccc5S4)n3)cc2)c1"
Result :: 100

----------
target: LATS2 (human) (UniProt Q9NRM7); assay: KINOMEscan competition binding; conditions: compound 1.0 µM
Sequence (Q9NRM7 whole entry, looked up): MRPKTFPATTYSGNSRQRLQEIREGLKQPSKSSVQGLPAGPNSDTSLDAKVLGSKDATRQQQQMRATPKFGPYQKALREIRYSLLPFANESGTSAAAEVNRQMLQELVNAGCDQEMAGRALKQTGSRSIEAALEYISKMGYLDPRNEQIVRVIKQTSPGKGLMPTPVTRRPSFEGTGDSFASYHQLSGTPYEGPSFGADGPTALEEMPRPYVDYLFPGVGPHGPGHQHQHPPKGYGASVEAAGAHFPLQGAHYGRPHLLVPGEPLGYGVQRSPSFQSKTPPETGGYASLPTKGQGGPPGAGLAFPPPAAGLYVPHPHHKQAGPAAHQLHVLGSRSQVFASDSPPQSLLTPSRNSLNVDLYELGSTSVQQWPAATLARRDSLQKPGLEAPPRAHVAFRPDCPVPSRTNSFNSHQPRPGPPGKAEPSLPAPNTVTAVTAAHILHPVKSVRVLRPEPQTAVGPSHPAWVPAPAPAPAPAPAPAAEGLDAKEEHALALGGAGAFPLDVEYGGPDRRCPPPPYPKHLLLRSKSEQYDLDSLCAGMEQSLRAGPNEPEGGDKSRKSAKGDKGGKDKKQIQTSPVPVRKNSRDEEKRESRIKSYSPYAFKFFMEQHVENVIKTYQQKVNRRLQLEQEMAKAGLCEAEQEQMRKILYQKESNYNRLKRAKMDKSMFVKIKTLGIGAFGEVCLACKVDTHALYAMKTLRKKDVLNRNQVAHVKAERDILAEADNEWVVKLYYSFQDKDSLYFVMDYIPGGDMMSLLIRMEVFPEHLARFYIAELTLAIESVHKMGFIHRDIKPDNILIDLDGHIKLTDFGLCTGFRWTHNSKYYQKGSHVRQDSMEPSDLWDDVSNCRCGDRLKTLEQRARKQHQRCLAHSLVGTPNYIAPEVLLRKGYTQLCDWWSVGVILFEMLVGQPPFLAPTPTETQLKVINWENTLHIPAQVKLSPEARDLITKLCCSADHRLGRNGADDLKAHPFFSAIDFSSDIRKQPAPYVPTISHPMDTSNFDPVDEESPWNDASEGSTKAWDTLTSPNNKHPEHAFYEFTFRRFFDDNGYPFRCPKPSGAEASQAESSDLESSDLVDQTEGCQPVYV
So I've got a bunch of compounds here, and I need their kinase still bound, per cent of control values.
Numbers only, in %.

Example cases with answers are listed next.
>  <SMILES REPR>
CN(C)C/C=C/C(=O)Nc1cccc(C(=O)Nc2ccc(Nc3nccc(/C(C#N)=C4\Nc5ccccc5S4)n3)cc2)c1

>  <MEASURED TARGET>
LATS2 (human) (UniProt Q9NRM7)

>  <kinase still bound, per cent of control [%]>
100

$$$$
>  <SMILES REPR>
Cc1cc(NC(=O)c2cccc(NC(=O)/C=C/CN(C)C)c2)ccc1Nc1nccc(-c2cccnc2)n1

>  <MEASURED TARGET>
LATS2 (human) (UniProt Q9NRM7)

>  <kinase still bound, per cent of control [%]>
74

$$$$
>  <SMILES REPR>
CN(C)C/C=C/C(=O)Nc1cccc(C(=O)Nc2ccc(Nc3nccc(-c4c(-c5ccccc5)nn5ccccc45)n3)cc2)c1

>  <MEASURED TARGET>
LATS2 (human) (UniProt Q9NRM7)

>  <kinase still bound, per cent of control [%]>
78

$$$$

# input for lookup
Query :: Please indicate kinase still bound, per cent of control recorded for "CN(C)C/C=C/C(=O)Nc1cccc(C(=O)Nc2ccc(Nc3nccc(-c4cccnc4)n3)cc2)c1"
Result :: 73

----------
target: STK17B (human) (UniProt O94768); experiment: KINOMEscan competition binding; details: compound 1.0 µM
Sequence (O94768 whole entry, looked up): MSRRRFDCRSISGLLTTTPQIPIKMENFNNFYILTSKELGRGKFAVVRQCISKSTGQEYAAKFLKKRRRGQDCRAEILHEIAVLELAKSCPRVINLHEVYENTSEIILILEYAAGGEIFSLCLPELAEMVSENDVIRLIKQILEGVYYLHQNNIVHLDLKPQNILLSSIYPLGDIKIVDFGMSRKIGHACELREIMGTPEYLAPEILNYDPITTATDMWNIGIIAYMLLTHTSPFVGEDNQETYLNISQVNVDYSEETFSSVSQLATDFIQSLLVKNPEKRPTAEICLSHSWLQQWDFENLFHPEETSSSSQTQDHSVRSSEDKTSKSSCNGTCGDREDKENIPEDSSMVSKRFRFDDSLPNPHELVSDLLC
ENDPOINT LABEL: kinase still bound, per cent of control (%)
Answers are plain numbers, in %.

Example cases with answers are listed next.
>  <SMILES REPR>
CN(C)C/C=C/C(=O)Nc1cccc(C(=O)Nc2ccc(Nc3nccc(-c4c(-c5ccccc5)nn5ccccc45)n3)cc2)c1

>  <NUMERIC RESULT>
100

$$$$
>  <SMILES REPR>
Cc1cc(NC(=O)c2cccc(NC(=O)/C=C/CN(C)C)c2)ccc1Nc1nccc(-c2cccnc2)n1

>  <NUMERIC RESULT>
72

$$$$
>  <SMILES REPR>
CN(C)C/C=C/C(=O)Nc1cccc(C(=O)Nc2ccc(Nc3nccc(/C(C#N)=C4\Nc5ccccc5S4)n3)cc2)c1

>  <NUMERIC RESULT>
100

$$$$

# input for lookup
Query :: Please indicate kinase still bound, per cent of control recorded for "CN(C)C/C=C/C(=O)Nc1cccc(C(=O)Nc2ccc(Nc3nccc(-c4cccnc4)n3)cc2)c1"
Result :: 24

----------
So I've got a bunch of compounds here, and I need their kinase still bound, per cent of control values.
biological target: PRKD3 (human); test: KINOMEscan competition binding; conditions: compound 1.0 µM
Give bare numbers, in %.

Example cases with answers are listed next.
>  <SMILES REPR>
CN(C)C/C=C/C(=O)Nc1cccc(C(=O)Nc2ccc(Nc3nccc(-c4c(-c5ccccc5)nn5ccccc45)n3)cc2)c1

>  <kinase still bound, per cent of control, %>
0

$$$$
>  <SMILES REPR>
CN(C)C/C=C/C(=O)Nc1cccc(C(=O)Nc2ccc(Nc3nccc(-c4cccnc4)n3)cc2)c1

>  <kinase still bound, per cent of control, %>
100

$$$$
>  <SMILES REPR>
CN(C)C/C=C/C(=O)Nc1cccc(C(=O)Nc2ccc(Nc3nccc(/C(C#N)=C4\Nc5ccccc5S4)n3)cc2)c1

>  <kinase still bound, per cent of control, %>
100

$$$$

Query :: Please indicate kinase still bound, per cent of control recorded for "Cc1cc(NC(=O)c2cccc(NC(=O)/C=C/CN(C)C)c2)ccc1Nc1nccc(-c2cccnc2)n1"
Result :: 80

----------
target: ALK (human) (UniProt Q9UM73); experiment: KINOMEscan competition binding; conditions: compound 1.0 µM
Sequence (Q9UM73 whole entry, looked up): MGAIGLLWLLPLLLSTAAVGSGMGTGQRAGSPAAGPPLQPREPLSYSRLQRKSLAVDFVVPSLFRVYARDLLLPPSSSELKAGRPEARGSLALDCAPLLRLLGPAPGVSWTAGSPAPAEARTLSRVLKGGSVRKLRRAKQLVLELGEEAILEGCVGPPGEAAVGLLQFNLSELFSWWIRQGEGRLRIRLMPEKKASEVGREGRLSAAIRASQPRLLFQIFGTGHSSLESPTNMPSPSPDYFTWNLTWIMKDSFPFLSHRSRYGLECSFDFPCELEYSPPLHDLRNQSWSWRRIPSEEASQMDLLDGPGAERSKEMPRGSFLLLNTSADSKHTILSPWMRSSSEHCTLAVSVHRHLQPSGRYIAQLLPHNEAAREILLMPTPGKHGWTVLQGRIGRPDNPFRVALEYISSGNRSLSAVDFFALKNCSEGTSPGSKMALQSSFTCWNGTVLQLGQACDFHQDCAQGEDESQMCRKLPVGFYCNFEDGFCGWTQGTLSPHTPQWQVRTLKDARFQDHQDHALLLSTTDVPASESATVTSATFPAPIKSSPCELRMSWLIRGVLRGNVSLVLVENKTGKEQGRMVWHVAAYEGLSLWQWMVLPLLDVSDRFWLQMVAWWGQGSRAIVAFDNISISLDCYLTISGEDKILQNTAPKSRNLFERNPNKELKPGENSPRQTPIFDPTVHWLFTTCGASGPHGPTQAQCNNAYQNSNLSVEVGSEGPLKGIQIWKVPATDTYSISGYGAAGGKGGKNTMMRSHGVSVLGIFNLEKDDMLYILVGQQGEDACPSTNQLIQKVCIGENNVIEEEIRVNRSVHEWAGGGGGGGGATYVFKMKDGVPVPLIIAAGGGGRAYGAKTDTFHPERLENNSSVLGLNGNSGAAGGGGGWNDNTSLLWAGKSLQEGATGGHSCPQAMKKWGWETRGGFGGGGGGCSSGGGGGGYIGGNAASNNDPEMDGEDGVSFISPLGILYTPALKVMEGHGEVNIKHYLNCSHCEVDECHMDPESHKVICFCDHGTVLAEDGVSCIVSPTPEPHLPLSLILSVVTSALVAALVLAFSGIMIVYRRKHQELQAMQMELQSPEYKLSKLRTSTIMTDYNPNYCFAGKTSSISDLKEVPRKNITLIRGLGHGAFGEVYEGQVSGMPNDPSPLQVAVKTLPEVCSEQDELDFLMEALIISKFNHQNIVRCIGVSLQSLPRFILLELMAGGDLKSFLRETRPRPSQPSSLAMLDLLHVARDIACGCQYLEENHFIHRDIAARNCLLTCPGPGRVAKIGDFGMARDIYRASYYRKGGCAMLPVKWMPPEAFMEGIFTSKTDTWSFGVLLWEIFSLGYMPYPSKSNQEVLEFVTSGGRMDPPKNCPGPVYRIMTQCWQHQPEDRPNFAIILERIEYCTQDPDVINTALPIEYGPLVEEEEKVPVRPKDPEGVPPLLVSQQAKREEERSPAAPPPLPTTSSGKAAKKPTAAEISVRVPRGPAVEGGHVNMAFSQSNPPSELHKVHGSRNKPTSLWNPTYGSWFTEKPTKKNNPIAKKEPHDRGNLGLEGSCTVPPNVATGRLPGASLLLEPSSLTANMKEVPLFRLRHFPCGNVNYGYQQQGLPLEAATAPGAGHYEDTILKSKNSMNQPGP
So I've got a bunch of compounds here, and I need their kinase still bound, per cent of control values.
# number then unit; no other words

>  <SMILES REPR>
CN(C)C/C=C/C(=O)Nc1cccc(C(=O)Nc2ccc(Nc3nccc(-c4cccnc4)n3)cc2)c1

>  <kinase still bound, per cent of control>
100%

$$$$
>  <SMILES REPR>
CN(C)C/C=C/C(=O)Nc1cccc(C(=O)Nc2ccc(Nc3nccc(/C(C#N)=C4\Nc5ccccc5S4)n3)cc2)c1

>  <kinase still bound, per cent of control>
100%

$$$$
>  <SMILES REPR>
Cc1cc(NC(=O)c2cccc(NC(=O)/C=C/CN(C)C)c2)ccc1Nc1nccc(-c2cccnc2)n1

>  <kinase still bound, per cent of control>
85%

$$$$

# input for lookup
Query :: Please indicate kinase still bound, per cent of control recorded for "CN(C)C/C=C/C(=O)Nc1cccc(C(=O)Nc2ccc(Nc3nccc(-c4c(-c5ccccc5)nn5ccccc45)n3)cc2)c1"
Result :: 100%

----------
So I've got a bunch of compounds here, and I need their kinase still bound, per cent of control values.
target: ULK2 (human); assay: KINOMEscan competition binding; settings: compound 1.0 µM
Answers are plain numbers, in %.

>  <SMILES REPR>
CN(C)C/C=C/C(=O)Nc1cccc(C(=O)Nc2ccc(Nc3nccc(-c4cccnc4)n3)cc2)c1

>  <kinase still bound, per cent of control [%]>
86

$$$$
>  <SMILES REPR>
CN(C)C/C=C/C(=O)Nc1cccc(C(=O)Nc2ccc(Nc3nccc(/C(C#N)=C4\Nc5ccccc5S4)n3)cc2)c1

>  <kinase still bound, per cent of control [%]>
73

$$$$
>  <SMILES REPR>
Cc1cc(NC(=O)c2cccc(NC(=O)/C=C/CN(C)C)c2)ccc1Nc1nccc(-c2cccnc2)n1

>  <kinase still bound, per cent of control [%]>
96

$$$$

# input for lookup
Query :: Please indicate kinase still bound, per cent of control recorded for "CN(C)C/C=C/C(=O)Nc1cccc(C(=O)Nc2ccc(Nc3nccc(-c4c(-c5ccccc5)nn5ccccc45)n3)cc2)c1"
Result :: 100

----------
So I've got a bunch of compounds here, and I need their kinase still bound, per cent of control values.
molecular target: PIM1 (human) (UniProt P11309); test: KINOMEscan competition binding; details: compound 1.0 µM
Sequence (P11309 whole entry, looked up): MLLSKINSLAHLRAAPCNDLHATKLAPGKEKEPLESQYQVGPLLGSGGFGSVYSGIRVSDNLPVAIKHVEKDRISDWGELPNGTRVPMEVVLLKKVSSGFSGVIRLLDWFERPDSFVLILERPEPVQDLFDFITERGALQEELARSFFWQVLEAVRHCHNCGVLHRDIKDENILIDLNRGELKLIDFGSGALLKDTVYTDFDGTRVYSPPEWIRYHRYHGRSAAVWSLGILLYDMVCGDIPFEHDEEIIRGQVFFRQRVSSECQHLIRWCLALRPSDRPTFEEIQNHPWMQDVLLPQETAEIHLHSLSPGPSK
Answers are plain numbers, in %.

Example cases with answers are listed next.
>  <SMILES REPR>
Cc1cc(NC(=O)c2cccc(NC(=O)/C=C/CN(C)C)c2)ccc1Nc1nccc(-c2cccnc2)n1

>  <VALUE UNIT>
%

>  <kinase still bound, per cent of control>
100

$$$$
>  <SMILES REPR>
CN(C)C/C=C/C(=O)Nc1cccc(C(=O)Nc2ccc(Nc3nccc(-c4cccnc4)n3)cc2)c1

>  <VALUE UNIT>
%

>  <kinase still bound, per cent of control>
94

$$$$

Count: 2. Required value per item: kinase still bound, per cent of control.
1. CN(C)C/C=C/C(=O)Nc1cccc(C(=O)Nc2ccc(Nc3nccc(/C(C#N)=C4\Nc5ccccc5S4)n3)cc2)c1
2. CN(C)C/C=C/C(=O)Nc1cccc(C(=O)Nc2ccc(Nc3nccc(-c4c(-c5ccccc5)nn5ccccc45)n3)cc2)c1

Result ::
1: 100; 2: 84

----------
So I've got a bunch of compounds here, and I need their kinase still bound, per cent of control values.
target: EPHA2 (human); assay: KINOMEscan competition binding; conditions: compound 1.0 µM
Numbers only, in %.

>  <SMILES REPR>
CN(C)C/C=C/C(=O)Nc1cccc(C(=O)Nc2ccc(Nc3nccc(/C(C#N)=C4\Nc5ccccc5S4)n3)cc2)c1

>  <VALUE UNIT>
%

>  <kinase still bound, per cent of control>
100

$$$$
>  <SMILES REPR>
Cc1cc(NC(=O)c2cccc(NC(=O)/C=C/CN(C)C)c2)ccc1Nc1nccc(-c2cccnc2)n1

>  <VALUE UNIT>
%

>  <kinase still bound, per cent of control>
100

$$$$
>  <SMILES REPR>
CN(C)C/C=C/C(=O)Nc1cccc(C(=O)Nc2ccc(Nc3nccc(-c4c(-c5ccccc5)nn5ccccc45)n3)cc2)c1

>  <VALUE UNIT>
%

>  <kinase still bound, per cent of control>
76

$$$$

# input for lookup
Query :: Please indicate kinase still bound, per cent of control recorded for "CN(C)C/C=C/C(=O)Nc1cccc(C(=O)Nc2ccc(Nc3nccc(-c4cccnc4)n3)cc2)c1"
Result :: 86
